Source: patent US20220025029A1

Molecular target: T1, natural Fel d1 (Indoor Biotech, #NA-FD1-2) (cat, UniProt P30438 23-92; P30440 18-109)
T1 construct: Bought natural heterodimeric glycoprotein, chains linked by disulfide bonds; also called nFel d1; nFel d 1
T1 sequence (P30438 other isoform, or with tags, fused parts or gaps, chain 1 of 2): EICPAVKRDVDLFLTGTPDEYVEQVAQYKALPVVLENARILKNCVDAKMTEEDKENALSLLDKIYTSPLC
T1 sequence (P30440 18-109, chain 2 of 2): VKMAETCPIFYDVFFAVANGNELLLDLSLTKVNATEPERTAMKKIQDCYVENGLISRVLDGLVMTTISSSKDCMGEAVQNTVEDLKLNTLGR
Experiment: Octet BLI sandwich; nFel d1 pre-complexed with captured mAb-1 H4H2597P (competitor); self-competition value subtracted
Property measured: Response of mAb-2 Binding to nFel d1 pre-complexed with mAb-1 (nm)
Return type: number; implicit unit nm.

See these solved cases before continuing.
H4H1232N (antibody, human IgG4, V domains shown, human IgG4 Fc (H4H prefix)) VH: EVQLVESGGGLVKPGGSLRLSCAASGFTFRNYNINWVRQAPGKGLEWVSLISGSSSYIYYADSVKGRFTVSRDNAKNSLYLQMNSLRAEDTAVYYCARRTLSYYVMDVWGQGTTVTVSS VL: DIQVTQSPSPLSASVGDRVTITCRASQGISNYLAWYQQKPGRVPQLLIYAASTLQSGVPSRFSGSGSGTDFTLTISSLQPEDVATYYCQKYNSAPYTFGQGTKLEIK	-0.03
H4H2645P (antibody, human IgG4, V domains shown, human IgG4 Fc (H4H prefix)) VH: EVQLVESGGGLVQPGGSLRLSCAASGFTFSTYAMHWVRQAPGKGLEWVSSISGRGRNSDHADSVKGRFTISRDNSKNTLYLQMNSLRAEDTAVYYCARTEYFHHWGQGTLVTVSS VL: DIQMTQSPSSLSASVGDRITITCRASQDINNYLAWFQQKPGKAPKSLIYGASSLQSGVPSKFSGSGSGTDFTLTISSLQPEDFATYYCQQYSSYPFTFGPGTKVDIK	0.55

For the next question, use this binder.
Query string: Dear colleague, I am looking for the recorded Response of mAb-2 Binding to nFel d1 pre-complexed with mAb-1 of the following binder: H4H1616N (antibody, human IgG4, V domains shown, human IgG4 Fc (H4H prefix)) VH: EVELLESGGGLVQPGGSLRLSCAASGFTFSSYAMSWVRQAPGKGLEWVSSISGRVGSTHFADSVKGRFTFSRDNSKNTLYLQLSSLRAEDTAVYYCARSRGAAYFDYWGQGTLVTVSS VL: DIQMTQSPSSLSASVGDRVTITCQANQDISNFLNWYQQRPGKAPNLLIYAASNLETGVPSRFSGSGSGTDFTFTISSLQPEDIATYYCQHYDNFPFTFGPGTKVDIK
Result string: 0.4
